Test system: A375 (Amelanotic Melanoma)
Assay: Cell viability analysis, skin cancer A375
Format: cell-based, human
Details: Homo sapiens, A-375, 72 h, read-out: cell viability (survival rate), A375, drug 10 μM, 72 hours, WST-1, OD450 nm
Where a name gives a salt, the structure may show the parent alone.
I'd appreciate it if you could supply viability at 10 µM values for the items below.
Unit % implied. Number only.

Ask: Query the reported viability at 10 µM for A375 (Amelanotic Melanoma); item: Clc1ccc(CSC(Cn2ccnc2)c2ccc(Cl)cc2Cl)cc1 (stereo not shown) [Sulconazole Nitrate]
Reply: 44.9

Ask: Query the reported viability at 10 µM for A375 (Amelanotic Melanoma); item: Nc1ccc(S(=O)(=O)Nc2ccccn2)cc1
Reply: 77.2

Ask: Query the reported viability at 10 µM for A375 (Amelanotic Melanoma); item: Nc1nc2c(ncn2CCC(CO)CO)c(=O)[nH]1
Reply: 64.2

Ask: Query the reported viability at 10 µM for A375 (Amelanotic Melanoma); item: CN(C)c1ccc(O)c2c1C[C@H]1C[C@H]3[C@H](N(C)C)C(O)=C(C(N)=O)C(=O)[C@@]3(O)C(O)=C1C2=O [Minocycline HCl]
Reply: 81.6

* * *

I'd appreciate it if you could supply cell viability (survival rate), AGS values for the items below.
Test system: AGS (Gastric Adenocarcinoma)
Test: Cell viability analysis, gastric cancer AGS
Format: cell-based, human
Details: drug 10 μM, 72 hours, WST-1, OD450 nm
Number only, please.

Ask: // returns reported cell viability (survival rate), AGS for input CN(C)CCCN1c2ccccc2CCc2ccc(Cl)cc21.Cl [Clomipramine HCl (Anafranil)]
Reply: 60.2

Ask: // returns reported cell viability (survival rate), AGS for input CCCCCCCCCCCCCCCC[N+](C)(C)C.[Br-] [Cetrimonium Bromide]
Reply: 42.4

Ask: // returns reported cell viability (survival rate), AGS for input O=C([O-])C(O)[C@H](O)[C@@H](O)[C@H](O)[C@H](O)CO.O=C([O-])C(O)[C@H](O)[C@@H](O)[C@H](O)[C@H](O)CO.[Ca+2] (stereo partly drawn) [Calcium Gluceptate]
Reply: 79.67

Ask: // returns reported cell viability (survival rate), AGS for input CC1(C)S[C@@H]2[C@H](NC(=O)[C@H](N)c3ccc(O)cc3)C(=O)N2[C@H]1C(=O)[O-].[Na+] [Amoxicillin sodium (Amox), Amoxicillin sodium]
Reply: 51.2

Ask: // returns reported cell viability (survival rate), AGS for input CN(C/C=C/C#CC(C)(C)C)Cc1cccc2ccccc12.Cl [Terbinafine HCl (Lamisil)]
Reply: 90.6

Ask: // returns reported cell viability (survival rate), AGS for input C[C@@H]1[C@H](O)[C@@H](C)/C=C/C=C/CC/C=C/C=C/C=C/C=C/C(O[C@H]2O[C@H](C)[C@@H](O)[C@H](N)[C@@H]2O)CC2O[C@](O)(CC(O)C(O)CCC(O)CC(O)CC(O)CC(=O)O[C@H]1C)CC(O)C2C(=O)O (stereo partly drawn)
Reply: 50.8

* * *

Tested on: MKN-45 (Gastric Adenocarcinoma)
Test: Cell viability analysis, gastric cancer MKN-45
Format: cell-based, human
Conditions: drug 10 μM, 72 hours, WST-1, OD450 nm
value_type: cell viability (survival rate), MKN-45

Ask: Query the reported cell viability (survival rate), MKN-45 for MKN-45 (Gastric Adenocarcinoma); item: CN(C/C=C/C#CC(C)(C)C)Cc1cccc2ccccc12.Cl [Terbinafine HCl (Lamisil)]
Reply: 81.8

Ask: Query the reported cell viability (survival rate), MKN-45 for MKN-45 (Gastric Adenocarcinoma); item: CN(C)CCCN1c2ccccc2CCc2ccc(Cl)cc21.Cl [Clomipramine HCl (Anafranil)]
Reply: 70.5

Ask: Query the reported cell viability (survival rate), MKN-45 for MKN-45 (Gastric Adenocarcinoma); item: CC1(C)S[C@@H]2[C@H](NC(=O)[C@H](N)c3ccc(O)cc3)C(=O)N2[C@H]1C(=O)[O-].[Na+] [Amoxicillin sodium (Amox), Amoxicillin sodium]
Reply: 63.2
